A compilation of pKi values for UniProtKB P19327 from the published literature.
Reminder that pKi is minus the log10 of a molar concentration.

# count of solved cases: 3
>  <MOLECULE>
COc1ccccc1N1CCN(CCCCNC(=O)c2cc3ccccc3[nH]2)CC1

>  <QUANTITY KIND>
pKi

>  <DATA VALUE>
7.93

$$$$
>  <MOLECULE>
O=C(c1ccc(Cl)c(Cl)c1)N1CCC(CNCc2cccc(-n3ccnc3)n2)CC1

>  <QUANTITY KIND>
pKi

>  <DATA VALUE>
8.13

$$$$
>  <MOLECULE>
CCCCS(=O)(=O)N(C)Cc1ccc(CN2CCN(c3ccccc3OC(C)C)CC2)n1C.O=C(O)CCC(=O)O

>  <QUANTITY KIND>
pKi

>  <DATA VALUE>
7.74

$$$$

Lookup: Checklist item: pKi tested on UniProtKB P19327, entry CN1CCc2ccc3c4c2[C@H]1Cc1cccc(c1-4)[C@H]3N , value?
Found: 6.85

Lookup: Record COc1ccccc1N1CCN(CCCCNC(=O)c2cccs2)CC1 : what is its pKi with UniProtKB P19327?
Found: 8.63

Lookup: Look up pKi with UniProtKB P19327 for this molecule: Nn1c(SCCCN2CCN(c3ncccn3)CC2)nc2sccc2c1=O
Found: 8.30

Lookup: For UniProtKB P19327, provide pKi of Cc1ccc2ncc3c(=O)n(CCCCN4CCN(c5ccccc5F)CC4)cnc3c2c1 please.
Found: 7.01

Lookup: Which measured pKi belongs to CCCN(CCC)CCCCC1CCCc2ccccc21 (stereo unspecified) , tested on UniProtKB P19327?
Found: 6.70

Lookup: Lab note: need pKi for CCCN(CCC)[C@H]1COc2c(cccc2-c2ccc(OC)cc2)C1 on UniProtKB P19327, anyone have it?
Found: 8.88

---

- TARGET SYSTEM: 5-hydroxytryptamine receptor 1A (Rattus norvegicus)
- Sequence (P19327 whole entry): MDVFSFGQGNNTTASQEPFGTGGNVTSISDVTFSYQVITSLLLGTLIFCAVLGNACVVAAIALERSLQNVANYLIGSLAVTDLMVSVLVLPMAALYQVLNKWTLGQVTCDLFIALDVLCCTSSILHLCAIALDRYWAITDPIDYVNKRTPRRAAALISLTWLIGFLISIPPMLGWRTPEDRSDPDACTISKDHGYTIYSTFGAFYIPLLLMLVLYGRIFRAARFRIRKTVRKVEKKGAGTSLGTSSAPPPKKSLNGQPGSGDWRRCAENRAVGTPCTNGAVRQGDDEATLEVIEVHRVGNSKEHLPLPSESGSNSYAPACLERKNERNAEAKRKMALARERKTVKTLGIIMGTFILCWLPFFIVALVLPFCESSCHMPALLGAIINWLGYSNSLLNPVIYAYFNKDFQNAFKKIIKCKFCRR
5-hydroxytryptamine receptor 1A (Rattus norvegicus) Ki, compiled from various sources.
Lab note: compare Ki with 30 nM, writing TRUE if less and FALSE if equal or more.

>  <COMPOUND>
COc1cccc(OC)c1OCCNC[C@H]1COc2cc3ccccc3cc2O1

>  <TARGET SYSTEM>
5-hydroxytryptamine receptor 1A (Rattus norvegicus)

>  <CLASS LABEL>
FALSE

$$$$
>  <COMPOUND>
CN(C)c1ccc(CCCCNCCOc2cc(F)cc3c2OCCC3=O)cc1

>  <TARGET SYSTEM>
5-hydroxytryptamine receptor 1A (Rattus norvegicus)

>  <CLASS LABEL>
TRUE

$$$$
>  <COMPOUND>
CCCCOc1ccccc1N1CCN(CCCN2C(=O)C3CCCN3C2=O)CC1.Cl (stereo not given)

>  <TARGET SYSTEM>
5-hydroxytryptamine receptor 1A (Rattus norvegicus)

>  <CLASS LABEL>
TRUE

$$$$
>  <COMPOUND>
O=c1ccc(OCCCN2CCN(Cc3ccccc3)CC2)nn1-c1ccc(Cl)c(Cl)c1

>  <TARGET SYSTEM>
5-hydroxytryptamine receptor 1A (Rattus norvegicus)

>  <CLASS LABEL>
FALSE

$$$$
>  <COMPOUND>
COc1ccccc1N1CCN(CCn2c(=O)[nH]c3cc(-c4cccc(Cl)c4)[nH]c3c2=O)CC1

>  <TARGET SYSTEM>
5-hydroxytryptamine receptor 1A (Rattus norvegicus)

>  <CLASS LABEL>
TRUE

$$$$
>  <COMPOUND>
Cc1c(C)c2ccc(OCCCCN3CCC(c4noc5cc(F)ccc45)CC3)cc2oc1=O

>  <TARGET SYSTEM>
5-hydroxytryptamine receptor 1A (Rattus norvegicus)

>  <CLASS LABEL>
TRUE

$$$$
>  <COMPOUND>
N#Cc1ccc2[nH]cc([C@H]3CC[C@@H](N4CCc5cc(OCCCF)ccc5C4)CC3)c2c1

>  <TARGET SYSTEM>
5-hydroxytryptamine receptor 1A (Rattus norvegicus)

>  <CLASS LABEL>
FALSE

$$$$
>  <COMPOUND>
COc1ccccc1N1CCN(CCCCc2ccc3c(c2)sc(=O)n3CCN2CCC(=C(c3ccc(F)cc3)c3ccc(F)cc3)CC2)CC1

>  <TARGET SYSTEM>
5-hydroxytryptamine receptor 1A (Rattus norvegicus)

>  <CLASS LABEL>
TRUE

$$$$

Lookup: Given COc1ccc(CCCCNCCOc2cccc3c2OCCC3)cc1 , is recorded Ki strictly lower than 30 nM?
Found: TRUE
